Entries and their measured C-term flag follow.
# target of assay: T1, B3GNT2 (Homo sapiens, UniProt Q9NY97)
# T1 construct: The respective ORFs of candidate genes [CD274 (NM_014143), MCL1 (NM_021960), JUNB (NM_002229), and B3GNT2 (NM_006577)] were synthesized; expressed in transfected cells; host or cells: A375 melanoma cells (lentiviral ORF overexpression)
# T1 sequence (Q9NY97 1-397): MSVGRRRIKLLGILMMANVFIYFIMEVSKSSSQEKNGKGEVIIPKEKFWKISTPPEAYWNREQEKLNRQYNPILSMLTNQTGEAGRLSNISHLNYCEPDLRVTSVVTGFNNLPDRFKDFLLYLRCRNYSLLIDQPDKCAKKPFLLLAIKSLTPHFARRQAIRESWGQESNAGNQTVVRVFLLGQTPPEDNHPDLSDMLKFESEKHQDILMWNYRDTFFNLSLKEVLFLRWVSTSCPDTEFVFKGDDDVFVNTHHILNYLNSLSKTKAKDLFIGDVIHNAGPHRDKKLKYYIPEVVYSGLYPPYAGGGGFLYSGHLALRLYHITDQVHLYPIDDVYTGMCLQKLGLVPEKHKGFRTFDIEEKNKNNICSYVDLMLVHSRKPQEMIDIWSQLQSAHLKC
# measurement protocol: Co-IP of FLAG-tagged B3GNT2 followed by mass spectrometry
# Assay type: cell-based
# Design: unit not given here
# experimental context: Co-IP followed by mass spectrometry of B3GNT2; C-term tag, FLAG pull-down
The reply should be a number, written without any unit.

molecule	C-term flag
NCCRP1 (protein) MEEVREGHALGGGMEADGPASLQELPPSPRSPSPPPSPPPLPSPPSLPSPAAPEAPELPEPAQPSEAHARQLLLEEWGPLSGGLELPQRLTWKLLLLRRPLYRNLLRSPNPEGINIYEPAPPTGPTQRPLETLGNFRGWYIRTEKLQQNQSWTVKQQCVDLLAEGLWEELLDDEQPAITVMDWFEDSRLDACVYELHVWLLAADRRTVIAQHHVAPRTSGRGPPGRWVQVSHVFRHYGPGVRFIHFLHKAKNRMEPGGLRRTRVTDSSVSVQLRE	4

Now take the following molecule into account.
# input molecule: PSMA3 (protein) SSIGTGYDLSASTFSPDGRVFQVEYAMKAVENSSTAIGIRCKDGVVFGVEKLVLSKLYEEGSNKRLFNVDRHVGMAVAGLLADARSLADIAREEASNFRSNFGYNIPLKHLADRVAMYVHAYTLYSAVRPFGCSFMLGSYSVNDGAQLYMIDPSGVSYGYWGCAIGKARQAAKTEIEKLQMKEMTCRDIVKEVAKIIYIVHDEVKDKAFELELSWVGELTNGRHEIVPKDIREEAEKYAKESLKEEDESDDDNM ; wanted: its C-term flag 0
